# Tested on: NCI/ADR-RES
# assay_summary: NCI tumour cell line growth inhibition, 48 h
Active and inactive are the calls of the source. Rule as the data show it: active = GI50 up to about 1.1 µM and inactive = higher.
Form entry, call: pick from label 1 (active), label 0 (inactive)

compound: CN(C)CCOc1ccc(I)cc1Cc1ccccc1
group_label: label 0
--
compound: CCOC(=O)/C=C(\C(=O)OCC)n1ccc(=O)n(Cc2cn(CCCCOC(C)=O)nn2)c1=O
group_label: label 0
--
compound: Cc1ccc(OCC2OC(C#N)C(Oc3ccc(C)cc3)C2Oc2ccc(C)cc2)cc1 (centres undefined)
group_label: label 0
--
compound: CC1(C)[C@@H]2C[C@H]1c1cnc(-c3ccccn3)cc1C2[C@@H]1c2cc(-c3ccccn3)ncc2[C@@H]2C[C@H]1C2(C)C (some centres undefined)
group_label: label 0
--
compound: CCOCc1c(C)cc(C)c(C2C(C(=O)c3ccccc3)N3c4ccccc4C=CC3C2(C#N)C(=O)OCC)c1C (centres undefined)
group_label: label 0
--
compound: CC1=C(\C=C/C(C)=C/C=C/C(C)=C/C=C/C=C(C)\C=C\C=C(C)/C=C/C2=C(C)CCCC2(C)C)C(C)(C)CCC1
group_label: label 0
--
compound: COC(=O)C(Cc1ccccc1)NP(=O)(O)OCC1OC(n2cc(F)c(=O)[nH]c2=O)CC1O (centres undefined)
group_label: label 0
--
compound: CC(=O)Nc1cc(/C=C\C(=O)N2CC(CCl)c3c2cc(N)c2ccccc32)n(C)n1 (centres undefined)
group_label: label 1
--
compound: N=c1ccn2c(n1)OC1C(OP(=O)(O)O)C(CO)OC12 (centres undefined)
group_label: label 0
--
compound: CCCCCCCCCCCCCCCCCCNc1ccn(C2OC(COP(=O)(O)OCC3OC(n4cc(C)c(=O)[nH]c4=O)CC3O)C(O)C2O)c(=O)n1 (centres undefined)
group_label: label 0

Each compound tested received a call. Report the one for `CCOC(=O)Cc1csc2[n+]1C(=O)/C(=C\c1cccc(Cl)c1Cl)S2` .
label 0

Status in this test for `CN1CCN(c2ccc3[nH]c(-c4ccc5[nH]c(-c6ccc(O)cc6)nc5c4)nc3c2)CC1` ?
label 0

Status in this test for `O=C(O)CCc1nc2cc3ccccc3cc2[nH]c1=O` ?
label 0

Each compound tested received a call. Report the one for CN1CCCC(OC(=O)c2cc3cc(CCl)ccc3oc2=O)C1 (centres undefined) .
label 0

Outcome logged for CC(=O)NC1C(OCc2ccccc2)OC(CO)C(O)C1OCC(=O)NC(C)C(=O)NC(CCC(=O)NCCCCCNc1c2ccccc2nc2cccc([N+](=O)[O-])c12)C(N)=O (centres undefined) in this assay:
label 1

What call does the record list for CN1Cc2cc(O)c(O)cc2C(O)C1 (centres undefined) ?
label 0

Outcome? `CCCCn1c(-c2ccc([N+](=O)[O-])cc2)cs/c1=N/N=C1\C(=O)Nc2ccc(Br)cc21`
label 0

Which result was noted for this compound in the test: NC(=O)N/N=C1\CC2C3CC4C2C4C13 (centres undefined)
label 0

// param item: `N#CCCN(CCCN(C(=O)Nc1ccccc1)c1ccccc1)C(=O)Nc1ccccc1` ; yields the recorded call
label 0

Call for entry `O=C(CCN1CCOCC1)Nc1ccc2sc3ccccc3c(=O)c2n1` :
label 0

---

# Tested on: K562
# assay_summary: NCI tumour cell line growth inhibition, 48 h
Activity calls are given as the source filed them. No stated cut-off is given here; in the data, active = GI50 up to about 1.1 µM and inactive = higher.
Hi! Could you answer with just one of these? TRUE for active, FALSE for inactive

Outcome? `Cc1ccccc1-n1c(=O)c2ncn(CCCl)c2n(-c2ccccc2C)c1=S`
FALSE

For `COc1ccc(S(=O)(=O)N/N=C/C(=O)O)cc1` , what call appears in the results of this test?
FALSE

What was the test verdict on COC(=O)CSC1CC(=O)c2c(Cl)sc(Cl)c21 (stereo not given) ?
FALSE

For `COc1ccc(/C(Cl)=C(\CN(C)C)c2ccc(OC)c(OC)c2)cc1OC.[B]` , what call appears in the results of this test?
FALSE

Dear all, I need the recorded test outcome for `COc1cc2nc(Nc3cccc(Br)c3)nc(Nc3cccc(Br)c3)c2cc1OC` , thank you.
FALSE

Please state the recorded outcome for this molecule: `CS/C(=N\c1ccccc1)N(c1ccccc1)c1nc(=[N+](C)C)ss1.[O-][Cl+3]([O-])([O-])[O-]`
TRUE

What did the test return for N=c1ccn2c(n1)OC1C(OP(=O)(O)O)C(CO)OC12 (stereo not given) ?
FALSE

Data credit: ChEMBL document CHEMBL1201862
